These entries and their values trace back to patent US5814627A.

System: cyclooxygenase-dependent thrombocyte aggregation
Experiment: Test 5: Cyclooxygenase-dependent thrombocyte aggregation
Type: cell-based, human
Settings: Homo sapiens, 25 μM; arachidonic acid as inducer; read-out: Test 5 residual activity (cyclooxygenase-dependent thrombocyte aggregation), percent of control
Counter-ions that a name gives are not always drawn.
endpoint: activity at 25 µM (%)
Answers are plain numbers, in %.

// worked examples, activity at 25 µM included
- molecule: "CC(OC(=O)[C@@H](N)Cc1ccccc1)C1CC(c2cc(C(C)(C)C)c(O)c(C(C)(C)C)c2)=NO1 (some centres unmarked) [Example 73, hydrochloride]"
  activity at 25 µM, %: 100
- molecule: "CC(OC(=O)CN)c1cc(-c2cc(C(C)(C)C)c(O)c(C(C)(C)C)c2)no1 (centres unmarked) [Example 76, hydrochloride]"
  activity at 25 µM, %: 99
- molecule: "C[C@@H](OC(=O)CN)[C@@H]1CC(c2cc(C(C)(C)C)c(O)c(C(C)(C)C)c2)=NO1 (relative stereo) [Example 77, hydrochloride]"
  activity at 25 µM, %: 100
- molecule: "CC(OC(=O)[C@@H](N)Cc1ccccc1)C1CC(c2cc(C(C)(C)C)c(O)c(C(C)(C)C)c2)=NO1 (single isomer, unassigned) [Example 74, hydrochloride]"
  activity at 25 µM, %: 95

Now for another entry.
For the record CC(OC(=O)[C@@H](N)Cc1ccccc1)c1cc(-c2cc(C(C)(C)C)c(O)c(C(C)(C)C)c2)no1 (single isomer, unassigned) [Example 71, hydrochloride] , what value of activity at 25 µM is listed for cyclooxygenase-dependent thrombocyte aggregation? 97
